# measured.on: ErbB2 WT (Homo sapiens (Human))
# Sequence (P04626 23-1255): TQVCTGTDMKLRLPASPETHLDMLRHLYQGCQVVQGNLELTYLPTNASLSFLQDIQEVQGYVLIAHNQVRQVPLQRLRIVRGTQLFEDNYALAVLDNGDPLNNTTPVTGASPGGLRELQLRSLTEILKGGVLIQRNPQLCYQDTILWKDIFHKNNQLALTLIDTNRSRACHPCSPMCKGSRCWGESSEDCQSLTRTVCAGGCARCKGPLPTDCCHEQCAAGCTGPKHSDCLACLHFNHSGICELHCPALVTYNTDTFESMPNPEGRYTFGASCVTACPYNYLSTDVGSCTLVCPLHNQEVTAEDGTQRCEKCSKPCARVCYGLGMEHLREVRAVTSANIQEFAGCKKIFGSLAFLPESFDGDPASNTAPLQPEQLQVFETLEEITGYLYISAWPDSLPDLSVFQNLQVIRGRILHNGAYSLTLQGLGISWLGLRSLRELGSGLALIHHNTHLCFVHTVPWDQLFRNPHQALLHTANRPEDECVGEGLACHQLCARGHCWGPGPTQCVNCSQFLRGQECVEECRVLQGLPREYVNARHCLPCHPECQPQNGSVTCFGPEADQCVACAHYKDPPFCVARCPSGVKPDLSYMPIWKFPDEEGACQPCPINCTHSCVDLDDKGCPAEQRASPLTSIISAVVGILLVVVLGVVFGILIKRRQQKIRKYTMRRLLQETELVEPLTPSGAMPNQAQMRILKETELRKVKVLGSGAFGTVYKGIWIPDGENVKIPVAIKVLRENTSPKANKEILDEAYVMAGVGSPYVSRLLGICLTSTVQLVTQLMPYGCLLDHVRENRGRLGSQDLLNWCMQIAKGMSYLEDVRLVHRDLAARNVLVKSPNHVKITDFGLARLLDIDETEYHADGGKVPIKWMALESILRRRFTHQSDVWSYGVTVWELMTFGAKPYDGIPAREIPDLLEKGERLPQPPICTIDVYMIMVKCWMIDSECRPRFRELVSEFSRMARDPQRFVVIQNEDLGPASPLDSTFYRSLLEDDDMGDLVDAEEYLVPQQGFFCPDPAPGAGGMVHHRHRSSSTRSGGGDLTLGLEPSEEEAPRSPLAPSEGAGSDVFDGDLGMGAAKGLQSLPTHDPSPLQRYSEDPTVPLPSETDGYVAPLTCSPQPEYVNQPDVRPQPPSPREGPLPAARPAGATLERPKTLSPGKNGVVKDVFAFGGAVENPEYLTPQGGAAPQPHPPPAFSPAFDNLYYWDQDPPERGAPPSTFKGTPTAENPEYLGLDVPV
Structures can show the parent of a compound that is named as a salt.
Lab note - cut at 70 nM for IC50: t if strictly below, f if not.

Input line: Please determine if Cc1cc(Nc2ncnc3cnc(N4CC[C@H](C#N)C4)nc23)ccc1Oc1ccc2c(c1)ncn2C [Example 173] is below 70 nM in terms of IC50.
Output line: t

Input line: Please let me know if CCON1CCN(c2ncc3ncnc(Nc4ccc(Oc5ccc6c(c5)ncn6C)c(C)c4)c3n2)CC1 [Example 483] shows IC50 below 70 nM.
Output line: f

Input line: Answer whether the compound Cc1cc(Nc2ncnc3cnc(N4CCCS4(=O)=O)nc23)ccc1Oc1ccc2c(c1)ncn2C [Example 139] has IC50 strictly less than 70 nM
Output line: t

Input line: Does this compound meet the criterion IC50 < 70 nM? Cc1cc(Nc2ncnc3cnc(N4CC(O)(C(F)F)C4)nc23)ccc1Oc1ccc2c(c1)ncn2C [Example 160, hydrochloride]
Output line: t

Input line: Identify whether the compound Cc1cc(Nc2ncnc3cnc(N4CCCCS4(=O)=O)nc23)ccc1Oc1ccc2c(c1)ncn2C [Example 437] records IC50 below 70 nM.
Output line: f

Input line: IC50 under 70 nM? Item: Cn1cnc2cc(Oc3ccc(Nc4ncnc5cnc(N6CCOCC6)nc45)cc3F)ccc21.O=C(O)C(F)(F)F [Example 80, 2,2,2-trifluoroacetate]
Output line: f
